Measured pEC50, listed per entry.
- ASSAYED_TARGET: CD80-CD28 interaction (Homo sapiens, UniProt P33681)
- Sequence (P33681 35-242 limits assumed): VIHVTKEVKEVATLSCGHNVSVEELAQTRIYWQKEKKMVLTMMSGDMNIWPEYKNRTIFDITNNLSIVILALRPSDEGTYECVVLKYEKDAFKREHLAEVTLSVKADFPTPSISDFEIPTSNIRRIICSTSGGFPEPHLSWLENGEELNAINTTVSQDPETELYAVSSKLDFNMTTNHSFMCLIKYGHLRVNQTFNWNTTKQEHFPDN
- PROCEDURE_SUMMARY: Homogenous Time Resolved Fluorescence (HTRF) assay, cell free
- Type: binding
- APPLIED_CONDITIONS: cell-free HTRF, compound concentration series 100 μM-1.7 nM, 4 hours at room temperature; read-out: Activity (EC50 in the HTRF assay)
pEC50: −log10 of the molar value.

[[record]]
compound = "CCCCCC(C)NC(=O)c1ccc(-n2[nH]c3c(nnc4ccccc43)c2=O)cc1 (centres unmarked)"
measured_metric = "pEC50"
observed_measurement = "5.00 to 6.00"

[[record]]
compound = "CCNC(=O)c1ccc(-n2[nH]c3c(nnc4ccccc43)c2=O)cc1"
measured_metric = "pEC50"
observed_measurement = "> 6.00"

[[record]]
compound = "CSCCNC(=O)Nc1ccc(-n2[nH]c3c(nnc4ccccc43)c2=O)cc1"
measured_metric = "pEC50"
observed_measurement = "5.00 to 6.00"

[[record]]
compound = "CC(CCCC(C)(C)O)NC(=O)Nc1ccc(-n2[nH]c3c(nnc4ccccc43)c2=O)cc1 (centres unmarked)"
measured_metric = "pEC50"
observed_measurement = "5.00 to 6.00"

[[record]]
compound = "O=C(NC1CCCC1)c1ccc(-n2[nH]c3c(nnc4ccccc43)c2=O)cc1"
measured_metric = "pEC50"
observed_measurement = "5.00 to 6.00"


Challenge: Item `O=C(NCCNCc1ccccc1)Nc1ccc(-n2[nH]c3c(nnc4ccccc43)c2=O)cc1` has what recorded pEC50?
Response given: > 6.00

Challenge: Item `O=C(NCCN1CCN(Cc2ccccc2)CC1)c1ccc(-n2[nH]c3c(nnc4ccccc43)c2=O)cc1` has what recorded pEC50?
Response given: > 6.00

Challenge: Item `O=C(NC1CCCCC1)c1ccc(-n2[nH]c3c(nnc4ccccc43)c2=O)cc1` has what recorded pEC50?
Response given: 5.00 to 6.00

Challenge: Item `O=C(NCCc1ccncc1)Nc1ccc(-n2[nH]c3c(nnc4ccccc43)c2=O)cc1` has what recorded pEC50?
Response given: 5.00 to 6.00

Challenge: Item `O=C(NCCc1cccnc1)Nc1ccc(-n2[nH]c3c(nnc4ccccc43)c2=O)cc1` has what recorded pEC50?
Response given: 5.00 to 6.00

Challenge: Item `CCCCNC(=O)Nc1ccc(-n2[nH]c3c(nnc4ccccc43)c2=O)cc1` has what recorded pEC50?
Response given: 5.00 to 6.00

Challenge: Item `O=C(NCCNc1ccccc1)c1ccc(-n2[nH]c3c(nnc4ccccc43)c2=O)cc1` has what recorded pEC50?
Response given: > 6.00

Challenge: Item `O=C(NCCNCCO)c1ccc(-n2[nH]c3c(nnc4ccccc43)c2=O)cc1` has what recorded pEC50?
Response given: > 6.00

Challenge: Item `O=C(NCCCCCO)Nc1ccc(-n2[nH]c3c(nnc4ccccc43)c2=O)cc1` has what recorded pEC50?
Response given: 5.00 to 6.00

Challenge: Item `CCCCN(CCCC)CCNC(=O)Nc1ccc(-n2[nH]c3c(nnc4ccccc43)c2=O)cc1` has what recorded pEC50?
Response given: > 6.00

Challenge: Item `O=C(NCCCO)Nc1ccc(-n2[nH]c3c(nnc4ccccc43)c2=O)cc1` has what recorded pEC50?
Response given: > 6.00

Challenge: Item CC(C)C(C)NC(=O)c1ccc(-n2[nH]c3c(nnc4ccccc43)c2=O)cc1 (centres unmarked) [Example 89] has what recorded pEC50?
Response given: > 6.00

###

Measured EC50, listed per entry.
- ASSAYED_TARGET: CD80-CD28 interaction (Homo sapiens, UniProt P33681)
- PROCEDURE_SUMMARY: Homogenous Time Resolved Fluorescence (HTRF) assay, cell free
- Type: binding
- APPLIED_CONDITIONS: cell free HTRF assay; concentration series 100 μM-1.7 nM; 4 hours at room temperature; read-out: Activity (EC50 in the HTRF assay)

[[record]]
compound = "COc1ccc(OCCNC(=O)Nc2ccc(-n3[nH]c4c(nnc5ccccc54)c3=O)cc2)cc1"
measured_metric = "EC50"
observed_measurement = "> 10000 nM"

[[record]]
compound = "O=C(Nc1ccc(-n2[nH]c3c(nnc4ccccc43)c2=O)cc1)Nc1nc2ccccc2s1"
measured_metric = "EC50"
observed_measurement = "> 10000 nM"


Challenge: // lookup EC50 | system=CD80-CD28 interaction (Homo sapiens, UniProt P33681) | key= O=C(NC1CCc2ccccc21)c1ccc(-n2[nH]c3c(nnc4ccccc43)c2=O)cc1 (stereo not shown)
Response given: > 10000 nM

Challenge: // lookup EC50 | system=CD80-CD28 interaction (Homo sapiens, UniProt P33681) | key= `O=C(NCCc1c[nH]c2ccccc12)c1ccc(-n2[nH]c3c(nnc4ccccc43)c2=O)cc1`
Response given: 1000 to 10000 nM

Challenge: // lookup EC50 | system=CD80-CD28 interaction (Homo sapiens, UniProt P33681) | key= `CS(=O)(=O)c1ccc(CN2CCC(NC(=O)c3ccc(-n4[nH]c5c(nnc6c(F)cccc65)c4=O)cc3)CC2)cc1`
Response given: < 1000 nM

###

Measured pEC50, listed per entry.
- ASSAYED_TARGET: CD80-CD28 interaction (Homo sapiens, UniProt P33681)
- PROCEDURE_SUMMARY: Homogenous Time Resolved Fluorescence (HTRF) assay, cell free
- Type: binding
- APPLIED_CONDITIONS: cell-free HTRF, concentration series 100 μM-1.7 nM, 4 hours at room temperature; read-out: Activity (EC50 in the HTRF assay)
pEC50: −log10 of the molar value.

These recorded examples may help you get a feel for the data.
[[record]]
molecule = "CN(C)CCCNC(=O)c1ccc(-n2[nH]c3c(nnc4ccc(Cl)cc43)c2=O)cc1 [Example 446]"
measured_metric = "pEC50"
observed_measurement = "> 6.00"

[[record]]
molecule = "O=C(NC(CO)(CO)CO)c1ccc(-n2[nH]c3c(nnc4c(F)cccc43)c2=O)cc1 [Example 487]"
measured_metric = "pEC50"
observed_measurement = "> 6.00"


Pending molecule:
Challenge: // lookup pEC50 | system=CD80-CD28 interaction (Homo sapiens, UniProt P33681) | key= CN(C)C1CCC(NC(=O)c2ccc(-n3[nH]c4c(nnc5c(F)cccc54)c3=O)cc2)CC1 (stereo not shown) [Example 472]
Response given: > 6.00

###

- ASSAYED_TARGET: CD80-CD28 interaction (Homo sapiens, UniProt P33681)
- PROCEDURE_SUMMARY: Homogenous Time Resolved Fluorescence (HTRF) assay, cell free
- Type: binding
- APPLIED_CONDITIONS: cell free HTRF assay; concentration series 100 μM-1.7 nM; 4 hours at room temperature; read-out: Activity (EC50 in the HTRF assay)
- Experimental: Homogenous Time Resolved Fluorescence Assay The examples described above were tested in a cell free Homogenous Time Resolved Fluorescence (HTRF) assay to determine their activity as inhibitors of the CD80-CD28 interaction. […] Non-specific interaction was measured by substituting a mouse Fab fragment (C215) for the CD80 mouse Fab fragment fusion protein (1.9 μg/ml). […]
Measured EC50, listed per entry.

[[record]]
molecule = "CN1C(C)(C)CC(NC(=O)c2ccc(-n3[nH]c4c(nnc5cccc(F)c54)c3=O)cc2)CC1(C)C"
observed_measurement = "< 1000 nM"


Pending molecule:
Challenge: Item `O=C(NCCN1CCC(Cc2ccccc2)CC1)Nc1ccc(-n2[nH]c3c(nnc4ccccc43)c2=O)cc1` has what recorded EC50?
Response given: < 1000 nM

###

- ASSAYED_TARGET: Biotinylated human CD80 (hCD80-BT) (Homo sapiens, UniProt P33681)
- Construct: biotin (biotinylated)
- PROCEDURE_SUMMARY: BIAcore biomolecular interaction analysis, binding to immobilised hCD80-BT
- Set-up: unit not given here
- APPLIED_CONDITIONS: BIAcore S51, immobilised hCD80-BT
MEASURED_METRIC: off-rate on CD80

[[record]]
compound = "CN(C)CCCNC(=O)c1ccc(-n2[nH]c3c(nnc4ccccc43)c2=O)cc1 [Example 2]"
measured_metric = "off-rate on CD80"
observed_measurement = "2×10^−2"

[[record]]
compound = "O=C(NCCCCN1CCCC1)c1ccc(-n2[nH]c3c(nnc4c(F)cccc43)c2=O)cc1 [Example 6]"
measured_metric = "off-rate on CD80"
observed_measurement = "2×10^−2"

[[record]]
compound = "O=C(NCc1ccccc1)c1ccc(-n2[nH]c3c(nnc4ccccc43)c2=O)cc1 [Example 3]"
measured_metric = "off-rate on CD80"
observed_measurement = "2×10^−2"

[[record]]
compound = "CN1C(C)(C)CC(NC(=O)c2ccc(-n3[nH]c4c(nnc5c(F)cccc54)c3=O)cc2)CC1(C)C [Example 7]"
measured_metric = "off-rate on CD80"
observed_measurement = "2×10^−2"


Challenge: Item O=C(NCCCNC1CCCCC1)c1ccc(-n2[nH]c3c(nnc4ccccc43)c2=O)cc1 [Example 4] has what recorded off-rate on CD80?
Response given: 2×10^−2
